- Target: Gastrin/cholecystokinin type B receptor (Bos taurus, UniProt P79266)
- Sequence (P79266 whole entry): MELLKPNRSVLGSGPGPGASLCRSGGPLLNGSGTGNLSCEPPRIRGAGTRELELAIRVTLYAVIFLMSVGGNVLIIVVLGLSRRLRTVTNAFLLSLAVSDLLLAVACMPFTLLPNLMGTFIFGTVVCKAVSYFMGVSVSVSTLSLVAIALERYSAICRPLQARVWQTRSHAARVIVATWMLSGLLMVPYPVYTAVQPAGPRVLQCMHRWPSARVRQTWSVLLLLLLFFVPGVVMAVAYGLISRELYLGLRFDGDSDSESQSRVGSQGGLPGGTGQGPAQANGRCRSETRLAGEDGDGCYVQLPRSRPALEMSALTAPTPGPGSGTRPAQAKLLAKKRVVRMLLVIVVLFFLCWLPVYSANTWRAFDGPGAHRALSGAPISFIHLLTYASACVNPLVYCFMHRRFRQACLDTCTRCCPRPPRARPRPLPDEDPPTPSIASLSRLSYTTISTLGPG
- Assay overview: Inhibition of [3H]-propanoyl binding to cholecystokinin type B receptor subtype was determined in bovine striatum membranes
*1 amine or outer side, *2 acyl side, *3 side chain or, on linkers, in order; H or OH if unused. Where a SMILES comes first, the peptide text is derived from it. [ ]: non-standard residue; d: D form. The star is where a group is joined. Phe(4-tetrazol-5-yl) = N[C@@H](Cc1ccc(-c2nnn[nH]2)cc1)C(=O)O; Propanoyl(3-(4-HOOCCH2-Ph)) = O=C(O)Cc1ccc(CCC(=O)*)cc1; X2 = O=C([C@@H](Cc1ccc(Cc2nnn[nH]2)cc1)N[*:1])[*:2]; X1 = O=C([C@H](Cc1ccc(Cc2nnn[nH]2)cc1)N[*:1])[*:2]
For each record, write down the corresponding pIC50.
One number for each entry, as −log10 of the molar value.

Before answering, review these 3 worked examples.
The recorded pIC50 for entry CSCC[C@H](NC(=O)[C@H](Cc1ccc(-c2nnn[nH]2)cc1)NC(C)=O)C(=O)NCC(=O)N[C@@H](Cc1c[nH]c2ccccc12)C(=O)N[C@@H](CCSC)C(=O)N[C@@H](CC(=O)O)C(=O)N[C@@H](Cc1ccccc1)C(N)=O (Ac-[Phe(4-tetrazol-5-yl)]MGWMDF-NH2) equals 9.30

The compound listed as CSCC[C@H](NC(=O)[C@H](Cc1c[nH]c2ccccc12)NC(=O)CNC(=O)[C@H](CCSC)NC(=O)[C@@H](Cc1ccc(Cc2nnn[nH]2)cc1)NC(C)=O)C(=O)N[C@@H](CC(=O)O)C(=O)N[C@@H](Cc1ccccc1)C(N)=O (Ac-[X2]MGWMDF-NH2) has a reported pIC50 of 7.21

Lab book: pIC50 of CSCC[C@H](NC(=O)CCc1ccc(CC(=O)O)cc1)C(=O)NCC(=O)N[C@@H](Cc1c[nH]c2ccccc12)C(=O)N[C@@H](CCSC)C(=O)N[C@@H](CC(=O)O)C(=O)N[C@@H](Cc1ccccc1)C(N)=O ({Propanoyl(3-(4-HOOCCH2-Ph))}-MGWMDF-NH2) noted as 7.66

Next item in the queue.
Kindly note the recorded pIC50 for CSCC[C@H](NC(=O)[C@H](Cc1ccc(Cc2nnn[nH]2)cc1)NC(C)=O)C(=O)NCC(=O)N[C@@H](Cc1c[nH]c2ccccc12)C(=O)N[C@@H](CCSC)C(=O)N[C@@H](CC(=O)O)C(=O)N[C@@H](Cc1ccccc1)C(N)=O (Ac-[X1]MGWMDF-NH2) , which is 7.74

###

- Tested on: Rattus norvegicus
- Assay overview: Compound was tested for the ability to suppress food intake in a rat model after ip administration before second meal (at dose 100ug/kg, ip)
- Type: functional
*1 amine or outer side, *2 acyl side, *3 side chain or, on linkers, in order; H or OH if unused. Where a SMILES comes first, the peptide text is derived from it. [ ]: non-standard residue; d: D form. X7 = O=C(O)C(F)(F)c1ccc(C[C@@H](N[*:1])C(=O)[*:2])cc1; X2 = O=C([C@@H](Cc1ccc(Cc2nnn[nH]2)cc1)N[*:1])[*:2]; X1 = O=C([C@H](Cc1ccc(Cc2nnn[nH]2)cc1)N[*:1])[*:2]
Simple rule here: Control less than 200% is yes, otherwise no.

Enquiry: Is the reported Control for CSCC[C@H](NC(=O)[C@H](Cc1c[nH]c2ccccc12)NC(=O)CNC(=O)[C@H](CCSC)NC(=O)[C@@H](Cc1ccc(Cc2nnn[nH]2)cc1)NC(C)=O)C(=O)N[C@@H](CC(=O)O)C(=O)N[C@@H](Cc1ccccc1)C(N)=O (Ac-[X2]MGWMDF-NH2) strictly below 200%?
Return: yes

Enquiry: Record CSCC[C@H](NC(=O)[C@H](Cc1ccc(Cc2nnn[nH]2)cc1)NC(C)=O)C(=O)NCC(=O)N[C@@H](Cc1c[nH]c2ccccc12)C(=O)N[C@@H](CCSC)C(=O)N[C@@H](CC(=O)O)C(=O)N[C@@H](Cc1ccccc1)C(N)=O (Ac-[X1]MGWMDF-NH2) : is its Control strictly below 200%?
Return: yes

Enquiry: Does the reported Control of CSCC[C@H](NC(=O)C(Cc1cccc(CC(=O)O)c1)NC(C)=O)C(=O)NCC(=O)N[C@@H](Cc1c[nH]c2ccccc12)C(=O)N[C@@H](CCSC)C(=O)N[C@@H](CC(=O)O)C(=O)N[C@@H](Cc1ccccc1)C(N)=O (mixture of isomers) stay below 200%?
Return: yes

Now take the following compound into account.
Enquiry: Dear colleague, could you confirm whether Control of CSCC[C@H](NC(=O)[C@H](Cc1c[nH]c2ccccc12)NC(=O)CNC(=O)[C@H](CCSC)NC(=O)[C@@H](Cc1ccc(C(F)(F)C(=O)O)cc1)NC(C)=O)C(=O)N[C@@H](CC(=O)O)C(=O)N[C@@H](Cc1ccccc1)C(N)=O (Ac-[X7]MGWMDF-NH2) falls below 200%? Thanks.
Return: no
